molecular target: T1, cynomolgus IL4Rα/Fc HIS6 (HEK expressed) (cynomolgus monkey); assay: HTRF receptor-ligand assay, purified scFv against biotinylated cynomolgus IL4
T1 construct: also called Cyno IL4R; cynomolgus IL-4Rα HIS Fc (in house HEK-EBNA derived); not shown: HIS6 tag
T1 sequence (chain, as listed by the source): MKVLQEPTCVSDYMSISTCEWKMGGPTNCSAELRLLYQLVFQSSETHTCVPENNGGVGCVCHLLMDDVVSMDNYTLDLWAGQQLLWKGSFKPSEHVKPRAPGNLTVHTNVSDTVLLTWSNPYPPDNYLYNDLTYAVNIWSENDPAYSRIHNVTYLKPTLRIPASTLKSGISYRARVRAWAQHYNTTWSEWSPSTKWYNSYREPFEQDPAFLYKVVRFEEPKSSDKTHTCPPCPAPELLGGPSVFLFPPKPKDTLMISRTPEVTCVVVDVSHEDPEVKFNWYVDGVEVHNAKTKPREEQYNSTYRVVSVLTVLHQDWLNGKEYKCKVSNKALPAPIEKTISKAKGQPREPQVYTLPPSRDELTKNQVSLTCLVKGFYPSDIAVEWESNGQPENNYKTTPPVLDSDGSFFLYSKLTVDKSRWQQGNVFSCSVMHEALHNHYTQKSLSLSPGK
Quantity kind: log10(Ki) (log10 of the value in nM)
Values are log10 of Ki in nM.

For the binder shown here, Antibody 17 scFv (scFv, V domains shown, tested as purified scFv) VH: QVQLVQSGAEVKKPGASVKVSCKASGYAFTSYYMHWARQAPGQGLEWMGIINPSGGSTSYAQKFQGRVTMTRDTSTSTVYMELSSLRSEDTAVYYCARGKWWWQHWGKGTLVTVSS VL: QSVLTQPPSVSAAPGQKVTISCSGGSSNIGNSYVSWYQQLPGTAPKLLIYDNNKRPSGIPDRFSGSKSGTSATLAITGLQTGDEADYYCGTWDTSPVDRPIFGTGTKLTVL , give the reported log10(Ki). 1.64

For the binder shown here, Antibody 9 scFv (scFv, V domains shown, tested as purified scFv) VH: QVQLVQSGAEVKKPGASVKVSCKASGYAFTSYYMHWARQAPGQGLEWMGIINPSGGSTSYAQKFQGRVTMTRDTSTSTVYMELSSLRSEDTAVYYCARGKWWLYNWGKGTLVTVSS VL: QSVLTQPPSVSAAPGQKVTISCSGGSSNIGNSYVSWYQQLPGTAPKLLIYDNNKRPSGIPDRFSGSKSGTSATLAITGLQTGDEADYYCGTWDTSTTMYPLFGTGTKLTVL , give the reported log10(Ki). 1.11

For the binder shown here, Antibody 40 scFv (scFv, V domains shown, tested as purified scFv) VH: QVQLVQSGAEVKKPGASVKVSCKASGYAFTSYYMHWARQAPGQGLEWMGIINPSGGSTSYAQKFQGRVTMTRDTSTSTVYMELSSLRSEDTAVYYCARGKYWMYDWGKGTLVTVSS VL: QSVLTQPPSVSAAPGQKVTISCSGGSSNIGNSYVSWYQQLPGTAPKLLIYDNNKRPSGIPDRFSGSKSGTSATLAITGLQTGDEADYYCGTWDSSTVWEWPFGTGTKLTVL , give the reported log10(Ki). 0.81

For the binder shown here, Antibody 37 scFv (scFv, V domains shown, tested as purified scFv) VH: QVQLVQSGAEVKKPGASVKVSCKASGYAFTSYYMHWARQAPGQGLEWMGIINPRGGSTSYAQKFQGRVAMTRDTSTSTVYMELSSLRPEDTAVYYCARGKYWMYDWGKGTLVTVSS VL: QSVLTQPPSVSAAPGQKVTISCSGGGSSIGNSYVSWYQQLPGTAPKLLIYDNNKRPSGVPDRFSGSKSGTSATLAITGLQTGDEADYYCGTWDTSPVWEWPFGTGTKLTVL , give the reported log10(Ki). -0.10

For the binder shown here, Antibody 30 scFv (scFv, V domains shown, tested as purified scFv) VH: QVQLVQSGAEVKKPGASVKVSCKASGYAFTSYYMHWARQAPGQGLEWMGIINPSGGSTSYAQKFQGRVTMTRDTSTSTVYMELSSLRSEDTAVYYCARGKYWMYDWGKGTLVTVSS VL: QSVLTQPPSVSAAPGQKVTISCSGGSSNIGNSYVSWYQRLPGAAPKLLIYDNNKRPSGIPDRFSGSKSGTSATLAITGLQTGDEADYYCGTWDTSTVWEWPFGTGTKLTVL , give the reported log10(Ki). 0.56
